assay: Nuclear factor erythroid 2-related factor 2/antioxidant responsive element (Nrf2/ARE) small molecule agonists: luciferase reporter gene qHTS assay in human keratinocytes (AID 1919969); details: KeratinoSens HaCaT ARE-luciferase, luminescence, 24 h; series mostly up to 92.4 µM; also: % is scaled to controls: 0 for no effect and ±100 for the full control effect; nearly all actives have a fitted effect of over 35% in size
Results filed as inconclusive are left out. Activity calls are given as the source filed them. Calls follow the shape of the full dose curve.
endpoint label: activity, positive = activation

compound=NC(=S)Nc1cccc2ccccc12 result="-4.89% [at 8.39 µM] (inactive)"
compound=O=C(O)CN(CCCN(CC(=O)O)CC(=O)O)CC(=O)O result="-12.6% [at 19 µM] (inactive)"
compound=CN(C)c1ccc(/C=C/c2ccc([N+](=O)[O-])cc2)cc1 result="12.5% [at 8.39 µM] (inactive)"
compound=NC[C@H]1O[C@H](O[C@H]2[C@H](O)[C@@H](O[C@H]3O[C@H](CO)[C@@H](O)[C@H](N)[C@H]3O)[C@H](N)C[C@@H]2N)[C@H](N)[C@@H](O)[C@@H]1O result="2.7% [at 19 µM] (inactive)"
compound=C=CCCCCCCCCCCC result="-0.901% [at 8.39 µM] (inactive)"
compound="CCC(C)S (stereo unspecified)" result="-3.8% [at 3.27 µM] (inactive)"
compound=Nc1c(NC/C=C\COc2cc(CN3CCCCC3)ccn2)c(=O)c1=O result="-5.23% [at 19 µM] (inactive)"
compound=CCCCCCCC/C=C\CCCCCCCC(=O)OCCCC result="8.08% [at 19 µM] (inactive)"
compound=CC1=CC[C@@H]2C[C@H]1C2(C)C result="-20.3% [at 19 µM] (inactive)"
compound=Cc1cc(C)c(N=Nc2c(O)c(S(=O)(=O)O)cc3cc(S(=O)(=O)O)ccc23)cc1C result="-2.39% [at 8.39 µM] (inactive)"

Can you give me activity, positive = activation for all of these, one by one?
1. O=c1oc2c(O)c(O)cc3c(=O)oc4c(O)c(O)cc1c4c23
2. COC(=O)c1ccc2cc(C(=O)OC)ccc2c1
3. C=CC(=O)OCCOC1C2CCC1C1CC=CC12 (stereo unspecified)
4. O=C(O)CN(CCN(CC(=O)O)CC(=O)O)CCN(CC(=O)O)CC(=O)O
5. O=S(=O)(O)c1ccc2c(N=Nc3ccc(S(=O)(=O)O)c4ccccc34)c(O)c(S(=O)(=O)O)cc2c1

-10.8% [at 19 µM] (inactive)
20.6% [at 19 µM] (inactive)
-2.46% [at 19 µM] (inactive)
-0.151% [at 19 µM] (inactive)
-0.366% [at 8.39 µM] (inactive)

// activity, positive = activation value for "CCCCCCCCCCCCCCCCI" : -9.58% [at 19 µM] (inactive)
